Target protein (sequence): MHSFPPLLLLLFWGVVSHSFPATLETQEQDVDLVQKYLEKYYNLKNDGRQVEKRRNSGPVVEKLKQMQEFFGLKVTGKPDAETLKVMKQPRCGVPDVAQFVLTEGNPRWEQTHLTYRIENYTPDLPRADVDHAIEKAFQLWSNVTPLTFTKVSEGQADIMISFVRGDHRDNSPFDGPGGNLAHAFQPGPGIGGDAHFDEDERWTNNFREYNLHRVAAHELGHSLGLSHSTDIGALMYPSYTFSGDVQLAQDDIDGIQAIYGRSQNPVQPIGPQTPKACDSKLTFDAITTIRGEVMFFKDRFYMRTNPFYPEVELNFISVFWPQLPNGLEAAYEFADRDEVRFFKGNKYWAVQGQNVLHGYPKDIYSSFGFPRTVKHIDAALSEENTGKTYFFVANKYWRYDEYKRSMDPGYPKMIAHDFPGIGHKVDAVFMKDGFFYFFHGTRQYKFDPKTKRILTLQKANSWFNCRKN
Property label: IC50

Input line: What does the data say about its IC50? Entry: Cc1c(COc2ccc(-c3ccc(S(=O)(=O)N[C@H](Cc4ccccc4)C(=O)O)cc3)cc2)oc2ccccc12
Output line: > 100 µM

Measured values drawn from ChEMBL document CHEMBL1147767 for this set.
